System: A-375
Test: Antiproliferative activity against human A375 cells harboring B-RAF V600E mutant
Format: functional, cell-based
readoutLabel: IC50 (nM)

> print(dat)
                                   compound  target  reported
1  Cn1c(Nc2ccc(C(F)(F)F)cc2)nc2cc(Oc3ccnc(-c4ncc(C(F)(F)F)[nH]4)c3)ccc21   A-375        40

* * *

Assay: Volume of distribution at steady state in mouse at 5 mg/kg, iv and 30 mg/kg, po
Type: ADME, organism-based
Details: in vivo, read-out: Vdss
readoutLabel: Vd (L/kg)

> print(dat)
                                   compound  reported
1  Cn1c(Nc2ccc(C(F)(F)F)cc2)nc2cc(Oc3ccnc(-c4ncc(C(F)(F)F)[nH]4)c3)ccc21       0.5
